Here, compounds appear alongside pIC50 reported for human ACC2 (Homo sapiens (Human)) in the literature.
Keep in mind that pIC50 stands for -log10 of concentration in molar terms.

// known answers, use as guide
compound	pIC50
CC(=O)NC(C)Cc1ccc(C#Cc2ccc(OC(C)C)cn2)cc1 (stereo not drawn)	6.21
Cc1cnc(OCC2CC2)cc1N1CCC(Oc2ccc([C@H](C)NC(=O)N(C)C)cc2)C1 (stereo partly drawn)	6.23

Now turn to the next compound.
Requested read-out: pIC50. Entry: CCCNc1nccc(N2CC[C@@H](Oc3ccc(C(C)C(=O)NCCF)cc3)C2)c1F (stereo partly drawn)
6.53

---

Please find below IC50 data on human ACC2 (Homo sapiens (Human), UniProt O00763) compiled from the literature.
Just the number in nM, nothing appended.

compound	IC50 / nM
CCOc1ccc(C#Cc2ccc(CC(COC)NC(C)=O)cc2)cc1 (stereo not shown)	1200
CCNC(=O)C(C)c1ccc(C#Cc2ccn(CC(C)C)c(=O)c2)cc1 (stereo not shown)	1100
CCCOc1ccc(C#Cc2ccc(C(C)(C)CNC(C)=O)cc2)nc1	650
CCNC(=O)C(C)c1ccc(C#Cc2ccc(OC3CC3)cc2)cc1 (stereo not shown)	60

Looking for the measured IC50 of CC(=O)N[C@@H](C)c1ccc(OC2CCN(c3ncc(OC(C)C)cc3F)C2)cc1 (stereo partly shown) , can you help?
104

Moving on to CCC(=O)N[C@@H](C)c1ccc(O[C@@H]2CCN(c3ccc(OC4CC4)cc3C)C2)cc1
411

---

Published IC50 for human ACC2 (Homo sapiens (Human), UniProt O00763), assembled from different documents, is shown next.
A number alone suffices; assume nM.

Consider the following illustrative entries.
compound	target_system	endpoint_value
CC(=O)NC(C)Cc1ccc(C#Cc2ccnc(NCC(C)C)n2)cc1 (stereo not shown)	human ACC2 (Homo sapiens (Human), UniProt O00763)	1300
CCCC1CCC2(CC1)CC(=O)C(c1cc(-c3ccc(Cl)cc3)ccc1C)=C2O (stereo not shown)	human ACC2 (Homo sapiens (Human), UniProt O00763)	783

Let's switch to this compound now.
Endpoint output: IC50 of CC(=O)Nc1nc(C)c(C(=O)NC(C)Cc2ccc(C3CN(c4ccc(OCC5CC5)cc4)C3)cc2)s1 (stereo not shown) . Value?
1050

---

Dear all, I have gathered published pIC50 values for human ACC2 (Homo sapiens (Human), UniProt O00763); the list follows.
Formally, pIC50 is defined as -log10 of the concentration c, with c in mol/L.

molecule	target_system	endpoint_value
CC(=O)N[C@@H](C)c1ccc(OC2CCN(c3cccc(C4CC4)n3)C2)cc1 (stereo partly shown)	human ACC2 (Homo sapiens (Human), UniProt O00763)	7.02
COc1ccc(C#Cc2ccc(CC(C)NC(=O)C3CC3)cc2)cc1OC (stereo not shown)	human ACC2 (Homo sapiens (Human), UniProt O00763)	5.47
CC(C(=O)NCCF)c1ccc(O[C@@H]2CCN(c3ncnc(OCC(C)(C)O)c3Cl)C2)cc1 (stereo partly shown)	human ACC2 (Homo sapiens (Human), UniProt O00763)	6.26

Now for a further molecule.
Lab note: need pIC50 with human ACC2 (Homo sapiens (Human), UniProt O00763) for entry CC(=O)N[C@@H](C)c1ccc(CN2CC(=O)c3cc(OCc4ccccc4)ccc3C2)cc1 , please look it up.
7.05

---

# literature pull: human ACC2 (Homo sapiens (Human)) IC50
The figure you give is taken to be in nM; do not add the unit.

compound	IC50 [nM]
C[C@H](NC(=O)C1(C)CC1)c1ccc(CN2CCc3cc(OCC4CC4(F)F)ccc3C2)cc1 (stereo partly drawn)	24
CC(=O)NC(C)Cc1ccc(C#Cc2ncc(Cl)cn2)cc1 (stereo not drawn)	7400
CCNC(=O)C(C)c1ccc(C2CCN(c3ccnc(OCC)n3)CC2)cc1 (stereo not drawn)	5480

Record request: IC50 value, item CCNC(=O)N[C@@H](C)c1ccc(CN2Cc3ccc(OCC4CC4)cc3C(O)C2)cc1 (stereo partly drawn)
872

What do you have for CCOc1ccc(C#Cc2ccc(C(C)NC(=O)c3cn[nH]c3)cc2)cc1 (stereo not drawn) ?
330

Now consider CC(=O)N[C@@H](C)c1ccc(O[C@@H]2CCN(c3ccnc(OCC4CC4)c3C)C2)cc1 and answer again.
55

// same read-out, input: CCOc1ccc(C#Cc2ccc(CC(C)NC(=O)C3CCC(=O)NC3)cc2)cc1 (stereo not drawn)
5100

Queued: C[C@H](NC(=O)N1CCOCC1)c1ccc(OC2CCN(c3ccnc(OCC4CC4)c3)C2)cc1 (stereo partly drawn)
144

// same read-out, input: CCOC(=O)C1(F)CC1C(=O)NC(C)Cc1ccc(C2CN(c3ccc(OCC4CC4)cc3)C2)cc1 (stereo not drawn)
2300

---

Field: pIC50. System: human ACC2 (Homo sapiens (Human)). Provenance: assorted publications.
Scale explanation: pIC50 corresponds to minus log10 of a concentration expressed in moles per litre.

compound	endpoint_value
CC(=O)NC(C)Cc1ccc(C#Cc2cc(OCc3ccccc3)ncn2)cc1 (stereo not shown)	6.12
CC(=O)NC(C)Cc1ccc(C#Cc2ccc(C(=O)N(C)C3CCCC3)cc2)cc1 (stereo not shown)	5.62
CC(=O)N[C@@H](C)c1ccc(O[C@@H]2CCN(c3cccc(N4CCCOCC4)n3)C2)cc1	6.28
COc1c(N2CC[C@@H](Oc3ccc([C@H](C)NC(C)=O)cc3)C2)ccnc1OCC(C)C	7.49
C[C@H](NC(=O)Cc1cncnc1)c1ccc(O[C@@H]2CCN(c3ccc(OCC4CC4)cc3)C2)cc1	6.92
C[C@H](NC(=O)CO)c1ccc(OC2CCN(c3cccc(C(F)(F)F)n3)C2)cc1 (stereo partly shown)	6.21

Next:
Find the recorded pIC50 belonging to CC(=O)NC(C)Cc1ccc(C#Cc2c(C)noc2C)cc1 (stereo not shown) and report it.
5.09

---

// merged dataset of pIC50 values, system = UniProt O00763, multiple refs
When answering, recall that pIC50 equals minus log10 of the concentration in mol/L, and write that number alone.

Check out these entries, answers already filled in.
compound	pIC50
CC(=O)Nc1ncc(C(=O)N[C@@H](C)c2ccc(C3CN(c4ccc(OCC5CC5)cc4)C3)cc2)s1	5.77
CC(=O)N[C@@H](C)c1ccc(OC2CCN(c3ccc(OCC(C)(F)F)cn3)C2)cc1 (stereo partly drawn)	6.18
CCCNc1nccc(N2CC[C@@H](Oc3ccc(C(C)C(=O)NC(C)C)cc3)C2)c1F (stereo partly drawn)	6.50
C[C@H](NC(=O)N(C)C)c1ccc(CN2Cc3ccc(OCC4CC4(F)F)cc3C(F)C2)cc1 (stereo partly drawn)	7.77
CCCOc1ccc(N2CC(c3ccc(CC(C)NC(C)=O)cc3)C2)c(OC)c1 (stereo not drawn)	6.22
CCNC(=O)N[C@@H](C)c1ccc(CN2CCc3cc(OCC4CC4(F)F)ccc3C2)cc1 (stereo partly drawn)	7.12
CC(=O)NC(C)Cc1ccc(C#Cc2ccc(C(=O)N(C)c3ccccc3)cc2)cc1 (stereo not drawn)	5.34
CC(Cc1ccc(C2CN(c3ccc(OCC4CC4)cc3)C2)cc1)NC(=O)C1CCC1 (stereo not drawn)	5.54
COC1CCN(c2cccc(N3CC[C@@H](Oc4ccc([C@H](C)NC(C)=O)cc4)C3)n2)CC1	6.12
CC(=O)N[C@@H](C)c1ccc(O[C@@H]2CCN(c3cccc(N4CCOCC4)n3)C2)cc1	6.30

Kindly review the next compound as well.
Returns the measured pIC50 for the input compound. Input: Cc1ccc(-c2ccc(Cl)cc2)cc1C1=C(O)C(C)(C)C(C)(C)NC1=O
5.25
